biological target: recombinant human TRα (Homo sapiens, UniProt P10827); test: biochemical; details: TR[…] (IC50, nM), displacement of 125I-T3 (0.16 nM)
Sequence (P10827 190-410 isoform P10827-2): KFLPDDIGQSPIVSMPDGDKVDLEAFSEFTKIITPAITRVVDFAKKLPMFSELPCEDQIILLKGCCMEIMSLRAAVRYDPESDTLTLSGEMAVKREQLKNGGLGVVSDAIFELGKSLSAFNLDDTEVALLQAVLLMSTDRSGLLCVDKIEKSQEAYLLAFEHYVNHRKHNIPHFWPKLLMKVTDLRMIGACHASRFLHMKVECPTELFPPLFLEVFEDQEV
TEST READOUT: log10 IC50 (log10 of the value in nM)

# COMPOUND, log10 IC50
data = [
    ("Cc1ccc(NC(=O)C(=O)O)c2ccn(Cc3ccc(O)c(C(C)C)c3)c12", 3.72),
    ("Cc1ccc(NCCC(=O)O)c2ccn(Cc3ccc(O)c(C(C)C)c3)c12", 3.20),
    ("CCOC(=O)CC(=O)Nc1ccc(C)c2c1cc(C)n2Cc1ccc(O)c(C(O)c2ccc(F)cc2)c1 (centres unmarked)", 3.58),
    ("Cc1ccc(NC(=O)CC(=O)O)c2cc(C(F)(F)F)n(Cc3ccc(O)c(C(C)C)c3)c12", 1.99),
    ("CCC(C)c1cc(Cn2c(C)cc3c(NC(=O)CC(=O)O)ccc(C)c32)ccc1O (centres unmarked)", 2.23),
    ("Cc1ccc(NC(=O)C(=O)O)c2cc(C)n(Cc3ccc(O)c(C(F)(F)F)c3)c12", 2.26),
    ("Cc1ccc(NC(=O)C(=O)O)c2cc(C)n(Cc3ccc(O)c(C(C)C)c3)c12", 1.38),
]

----------
Reported IC50 is given for each of the following compounds.
biological target: recombinant human TRβ (Homo sapiens, UniProt P10828); experiment: biochemical; conditions: TR[…] (IC50, nM), displacement of 125I-T3 (0.16 nM)

# COMPOUND, VALUE UNITS, IC50
data = [
    ("CC(C)c1cc(Cn2ncc3c(NC(=O)C(=O)O)cccc32)ccc1O", "nM", 1400),
    ("Cc1ccc(NC(=O)C(=O)O)c2cc(C)n(Cc3ccc(O)c(C(C)C)c3)c12", "nM", 3.1),
    ("CCc1cc2c(NC(=O)C(=O)O)cccc2n1Cc1ccc(O)c(C(C)C)c1", "nM", 91),
    ("Cc1ccc(NC(=O)C(F)C(=O)O)c2cc(C)n(Cc3ccc(O)c(C(C)C)c3)c12 (stereo not shown)", "nM", 13),
]

----------
Reported IC50 is given for each of the following molecules.
Target: recombinant human TRβ (Homo sapiens)
Experiment: biochemical
Details: TR[…] (IC50, nM), displacement of 125I-T3 (0.16 nM)
Text: Thyroid Hormone Receptor Binding Test (1) Preparation of Fused Protein Having Ligand Binding Region of Thyroid Hormone Receptor Human TRα and human TRβ ligand binding domains were expressed in Escherichia coli as a fused protein (recombinant human TRα or recombinant human TRβ) having TRα and TRβ ligand binding domains at a C-terminus of His-Patch Thioredoxin using the His-Patch Thioredoxin fusing protein expressing system (Invitrogen). […]

# MOLECULE, IC50
data = [
    ("CC(C)c1cc(Cn2c(C(F)(F)F)cc3c(NC(=O)C(=O)O)cccc32)ccc1O [Example 119]", "15 nM"),
    ("Cc1ccc(NC(=O)CC(=O)O)c2cc(C)n(Cc3ccc(O)c(C(O)c4ccc(F)cc4)c3)c12 (single isomer, unassigned; (-)) [Example 131]", "7.1 nM"),
    ("Cc1c(C)n(Cc2ccc(O)c(C(C)C)c2)c2cccc(NC(=O)C(=O)O)c12 [Example 83]", "27 nM"),
    ("CCc1cc2c(NC(=O)Cc3nnn[nH]3)cccc2n1Cc1ccc(O)c(C(C)C)c1 [Example 41]", "650 nM"),
    ("CCOC(=O)C(=O)Nc1cccc2c1c(C)c(C)n2Cc1ccc(O)c(C(C)C)c1 [Example 19]", "56 nM"),
    ("CC(C)c1cc(Cn2ccc3cc(NC(=O)C(=O)O)ccc32)ccc1O [Example 105]", "260 nM"),
    ("Cc1ccc(NC(=O)CC(=O)O)c2cc(C)n(Cc3ccc(O)c(Cc4ccc(F)cc4)c3)c12 [Example 100]", "28 nM"),
    ("Cc1ccc(NC(=O)CCC(=O)O)c2cc(C)n(Cc3ccc(O)c(C(C)C)c3)c12 [Example 93]", "260 nM"),
    ("CCOC(=O)CC(=O)Nc1ccc(C)c2c1cc(C(F)(F)F)n2Cc1ccc(O)c(C(C)C)c1 [Example 26]", "310 nM"),
    ("Cc1cc2c(NC(=O)C(=O)O)cccc2n1Cc1ccc(O)c(C(C)C)c1 [Example 72]", "40 nM"),
    ("CC(C)c1cc(Cn2ccc3c(NC(=O)C(=O)O)cc(Br)cc32)ccc1O [Example 120]", "63 nM"),
    ("Cc1cc2c(NC(=O)CC(=O)O)cccc2n1Cc1ccc(O)c(C(C)C)c1 [Example 73]", "210 nM"),
    ("CCOC(=O)CC(=O)Nc1ccc(C)c2c1cc(C)n2Cc1ccc(O)c(C(O)c2ccc(F)cc2)c1 (centres unmarked) [Example 57]", "24 nM"),
    ("Cc1ccc(NC(=O)CC(=O)O)c2cc(C(F)(F)F)n(Cc3ccc(O)c(C(C)C)c3)c12 [Example 95]", "5 nM"),
    ("CCOC(=O)C(=O)Nc1cccc2c1cc(C)n2Cc1ccc(O)c(C(C)C)c1 [Example 8]", "72 nM"),
    ("Cc1ccc(NCCC(=O)O)c2ccn(Cc3ccc(O)c(C(C)C)c3)c12 [Example 82]", "1100 nM"),
    ("Cc1ccc(NC(=O)CC(=O)O)c2cc(C)n(Cc3ccc(O)c4ccccc34)c12 [Example 115]", "130 nM"),
]

----------
Target: recombinant human TRβ (Homo sapiens, UniProt P10828)
Sequence (P10828 244-461): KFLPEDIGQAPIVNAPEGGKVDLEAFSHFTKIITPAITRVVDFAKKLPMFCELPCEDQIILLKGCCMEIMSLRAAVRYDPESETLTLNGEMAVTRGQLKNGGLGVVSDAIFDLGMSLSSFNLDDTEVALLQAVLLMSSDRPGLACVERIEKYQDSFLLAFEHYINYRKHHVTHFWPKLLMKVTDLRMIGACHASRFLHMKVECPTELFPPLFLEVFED
Assay: biochemical
Settings: TR[…] (IC50, nM), displacement of 125I-T3 (0.16 nM)

# COMPOUND, VALUE UNITS, IC50
data = [
    ("Cc1cc(Cn2ccc3c(NC(=O)C(=O)O)ccc(C)c32)cc(C)c1O [Example 103]", "nM", 860),
    ("Cc1cc2c(OCC(=O)O)cccc2n1Cc1ccc(O)c(C(C)C)c1 [Example 74]", "nM", 200),
    ("Cc1ccc(NC(=O)C(=O)O)c2cc(C)n(Cc3ccc(O)c(Cc4ccc(F)cc4)c3)c12 [Example 125]", "nM", 8.7),
    ("CCc1cc2c(NC(=O)CC(=O)O)cccc2n1Cc1ccc(O)c(C(C)C)c1 [Example 75]", "nM", 550),
]

----------
biological target: recombinant human TRα (Homo sapiens); assay: biochemical; conditions: TR[…] (IC50, nM), displacement of 125I-T3 (0.16 nM)

# COMPOUND, IC50
data = [
    ("Cc1ccc(NC(=O)CC(=O)O)c2cc(C)n(Cc3ccc(O)c(C(O)c4ccc(F)cc4)c3)c12 (centres unmarked) [Example 129]", "260 nM"),
    ("CC(C)c1cc(Cn2c(C(F)(F)F)cc3c(NC(=O)CC(=O)O)cccc32)ccc1O [Example 76]", "610 nM"),
    ("CC(C)c1cc(Cn2ccc3c(NC(=O)C(=O)O)cc(Br)cc32)ccc1O [Example 120]", "380 nM"),
    ("Cc1c(C)n(Cc2ccc(O)c(C(C)C)c2)c2cccc(NC(=O)C(=O)O)c12 [Example 83]", "85 nM"),
    ("CCCc1cc(Cn2c(C)cc3c(NC(=O)CC(=O)O)ccc(C)c32)ccc1O [Example 117]", "640 nM"),
    ("Cc1cc(NC(=O)CC(=O)O)cc2ccn(Cc3ccc(O)c(C(C)C)c3)c12 [Example 109]", "> 10000 nM"),
    ("Cc1ccc(NC(=O)C(=O)O)c2cc(C)n(Cc3ccc(O)c(Cc4ccc(F)cc4)c3)c12 [Example 125]", "66 nM"),
    ("Cc1ccc(NC(=O)Cc2nnn[nH]2)c2cc(C)n(Cc3ccc(O)c(C(C)C)c3)c12 [Example 43]", "450 nM"),
    ("CC(C)c1cc(Cn2ncc3c(NC(=O)C(=O)O)cccc32)ccc1O [Example 111]", "> 10000 nM"),
    ("Cc1cc(Cn2ccc3c(NC(=O)C(=O)O)ccc(C)c32)cc(C)c1O [Example 103]", "3200 nM"),
    ("Cc1ccc(NC(=O)CC(=O)O)c2cc(C)n(Cc3ccc(O)c(Br)c3)c12 [Example 65]", "> 10000 nM"),
    ("CC(C)c1cc(Cn2ccc3c(NC(=O)C(=O)O)cccc32)ccc1O [Example 63]", "1200 nM"),
    ("CCOC(=O)C(=O)Nc1cccc2c1cc(C)n2Cc1ccc(O)c(C(C)C)c1 [Example 8]", "370 nM"),
    ("Cc1ccc(NC(=O)CC(=O)O)c2cc(C)n(Cc3ccc(O)c(C(O)c4ccc(F)cc4)c3)c12 (single isomer, unassigned; (-)) [Example 131]", "99 nM"),
    ("CCc1cc2c(NC(=O)CC(=O)O)cccc2n1Cc1ccc(O)c(C(C)C)c1 [Example 75]", "> 10000 nM"),
    ("CCOC(=O)C(=O)Nc1ccc(C)c2c1cc(C)n2Cc1ccc(O)c(C(C)C)c1 [Example 21]", "37 nM"),
    ("CCc1cc2c(NC(=O)Cc3nnn[nH]3)cccc2n1Cc1ccc(O)c(C(C)C)c1 [Example 41]", "> 10000 nM"),
]
